The measured values listed here are drawn from the supplement of paper PMC9732359.

test: protein stability index of a GFP-peptide fusion (yeast GPS) (PSI 1-4); higher = more stable; sorted into four equal gates, so the index is relative within each strain; details: san1∆
measurement.kind: protein stability index
A bare number is all that is needed in reply.

[in] I'd like to know its protein stability index. The sequence in question is VDNENNKPAIKEDSTIQ [SWI3]
[out] 3.08

[in] I'd like to know its protein stability index. The sequence in question is RRWNKLCTLNDSKGSLY [YGL100W/SEH1]
[out] 2.91

[in] I'd like to know its protein stability index. The sequence in question is KDRIIDERTKEFEKKLQ [YIL149C/MLP2]
[out] 2.94

[in] I'd like to know its protein stability index. The sequence in question is RNNFLAENSHTQPKATS [PUP1]
[out] 3.06

[in] I'd like to know its protein stability index. The sequence in question is VPEFFQTANEKHITVRL [SRP14]
[out] 3.01

----------
assay: protein stability index of a GFP-peptide fusion (yeast GPS) (PSI 1-4); higher = more stable; sorted into four equal gates, so the index is relative within each strain; details: ubr1∆
Exercise: state measured protein stability index for each of the sequences provided.
A bare number is all that is needed in reply.

[in] I'd like to know its protein stability index. The sequence in question is MNGNSTNNEQLQQELAT [NUT2]
[out] 3.07

[in] I'd like to know its protein stability index. The sequence in question is PSKKLKTEDGFVIPALP [RPC82]
[out] 3.08

[in] I'd like to know its protein stability index. The sequence in question is NWYKSKKKAFTKYSAKY [RPL3]
[out] 3.01

[in] I'd like to know its protein stability index. The sequence in question is AARHKQHEQGTFEKHDR [RRI2]
[out] 2.96

[in] I'd like to know its protein stability index. The sequence in question is SSLYEASLNALKESIKN [RPN1]
[out] 3.08

----------
test: protein stability index of a GFP-peptide fusion (yeast GPS) (PSI 1-4); higher = more stable; sorted into four equal gates, so the index is relative within each strain; conditions: doa10∆
Label rule, in plain words: protein stability index of 3 and up is criterion met, under 3 is criterion not met.

[in] Given GKLGQIDYALTAVKQGV [PRE8] , state whether its protein stability index is at least 3.
[out] criterion not met

[in] Given CSRIIKIDKPIRTQVNT [RGR1] , state whether its protein stability index is at least 3.
[out] criterion not met

[in] Given LSLHTGFIENCNGSALV [MTR3] , state whether its protein stability index is at least 3.
[out] criterion not met

[in] Given QTVRLIKDLQRAINKVL [SIR2] , state whether its protein stability index is at least 3.
[out] criterion not met

[in] Given GTFTADYSKPNLPPHYA [SSN2] , state whether its protein stability index is at least 3.
[out] criterion not met

[in] Given IQDSNGDVKNMEDVKIQ [SWI3] , state whether its protein stability index is at least 3.
[out] criterion not met

[in] Given GMPHKFYQGKTGVVYNV [RPL21A] , state whether its protein stability index is at least 3.
[out] criterion not met

[in] Given AILVPMTVNDQPIEKNG [YJR042W/NUP85] , state whether its protein stability index is at least 3.
[out] criterion not met

[in] Given VRVQFQFTGFLLHEMTQ [GRR1] , state whether its protein stability index is at least 3.
[out] criterion not met

[in] Given KKIKGKSIQDIVGLATL [SRP21] , state whether its protein stability index is at least 3.
[out] criterion met

[in] Given AQGTKFRISLGLPVGAI [RPL23A] , state whether its protein stability index is at least 3.
[out] criterion not met

[in] Given TISVPQIRDVMERFSVL [RRP6] , state whether its protein stability index is at least 3.
[out] criterion not met

[in] Given LKWVAVVPDLGHLNGHT [SSN2] , state whether its protein stability index is at least 3.
[out] criterion met

[in] Given HKTMSIVGVLQDDADPM [RPT2] , state whether its protein stability index is at least 3.
[out] criterion not met

[in] Given LKLNHIIANINSFTKGN [SNU114] , state whether its protein stability index is at least 3.
[out] criterion not met

[in] Given GDLASLVLLNGRLRNKS [RPP1] , state whether its protein stability index is at least 3.
[out] criterion not met

[in] Given FARLSRLLSLWEVFQMA [RPC82] , state whether its protein stability index is at least 3.
[out] criterion not met

[in] Given NIIESIANFSRAGKYEL [YJR042W/NUP85] , state whether its protein stability index is at least 3.
[out] criterion not met

[in] Given EAVELPLVQADLYEQIG [RPT3] , state whether its protein stability index is at least 3.
[out] criterion met

[in] Given TSAHLKLKEMQKVLNAH [SMC4] , state whether its protein stability index is at least 3.
[out] criterion not met

[in] Given GGNSNKSPPQFFYNISS [SIN4] , state whether its protein stability index is at least 3.
[out] criterion not met

[in] Given LEEHKNHLDELQKKFVT [SMC1] , state whether its protein stability index is at least 3.
[out] criterion not met

[in] Given LIQEHDSRKNREQSSND [BRN1] , state whether its protein stability index is at least 3.
[out] criterion met

----------
assay: protein stability index of a GFP-peptide fusion (yeast GPS) (PSI 1-4); higher = more stable; sorted into four equal gates, so the index is relative within each strain; conditions: san1∆
Exercise: state measured protein stability index for each of the sequences provided.
A bare number is all that is needed in reply.

[in] I'd like to know its protein stability index. The sequence in question is LLSDVNQNQRNVNETMS [SMC3]
[out] 3.04

[in] I'd like to know its protein stability index. The sequence in question is NVGDNNSTASSSNISPE [ARP7]
[out] 3.04

[in] I'd like to know its protein stability index. The sequence in question is PNGEGSKTWETYEMRIH [RPS20]
[out] 3.05

[in] I'd like to know its protein stability index. The sequence in question is IIGHNPDENKTRVRLPS [RPL2A]
[out] 2.93

[in] I'd like to know its protein stability index. The sequence in question is KPALGSLGSSSTTASGT [YGR119C/NUP57]
[out] 3.05

----------
Exercise: state measured protein stability index for each of the sequences provided.
assay: protein stability index of a GFP-peptide fusion (yeast GPS) (PSI 1-4); higher = more stable; sorted into four equal gates, so the index is relative within each strain; details: ubr1∆
A bare number is all that is needed in reply.

[in] I'd like to know its protein stability index. The sequence in question is DLSMVPKMKDEEYDDDD [SNF2]
[out] 2.99

[in] I'd like to know its protein stability index. The sequence in question is CAINSKSRGSDLQYLGE [RRP6]
[out] 3.2

[in] I'd like to know its protein stability index. The sequence in question is KSKTSTGKERSKKRKLN [SNM1]
[out] 3.21

[in] I'd like to know its protein stability index. The sequence in question is DDYYKEIIGGGSKSASK [ISW2]
[out] 2.69

[in] I'd like to know its protein stability index. The sequence in question is DEFYINVDKNLNEIKEH [RPN14]
[out] 2.92

[in] I'd like to know its protein stability index. The sequence in question is KDRIIDERTKEFEKKLQ [YIL149C/MLP2]
[out] 3.42

----------
Exercise: state measured protein stability index for each of the sequences provided.
assay: protein stability index of a GFP-peptide fusion (yeast GPS) (PSI 1-4); higher = more stable; sorted into four equal gates, so the index is relative within each strain; details: san1∆
A bare number is all that is needed in reply.

[in] I'd like to know its protein stability index. The sequence in question is SWSSSAAVIMRCKIYFF [PCI8]
[out] 1.34

[in] I'd like to know its protein stability index. The sequence in question is KSSILTVLQKNSLLLDS [YML103C/NUP188]
[out] 1.56

[in] I'd like to know its protein stability index. The sequence in question is SKQVTDYYQSIYAKYGA [FAS2]
[out] 2.54

[in] I'd like to know its protein stability index. The sequence in question is SATPNAAAFSQQQNASS [GAL11]
[out] 2.89

[in] I'd like to know its protein stability index. The sequence in question is NIYDQLRNKLIESNKLA [RRP6]
[out] 1.9

[in] I'd like to know its protein stability index. The sequence in question is FKSPIDNSESHPFIPLL [RRP6]
[out] 2.03

[in] I'd like to know its protein stability index. The sequence in question is ILINTARIHAQNYLKTY [PRE9]
[out] 2.55

[in] I'd like to know its protein stability index. The sequence in question is RHHWQYTKASLAKERQK [SSN8]
[out] 1.4

[in] I'd like to know its protein stability index. The sequence in question is TSEMKVLSIPPANHLQS [YGL100W/SEH1]
[out] 2.39

[in] I'd like to know its protein stability index. The sequence in question is MKDRLVEWNDQVEKLGK [RPN9]
[out] 3.36

[in] I'd like to know its protein stability index. The sequence in question is SMPLEQLIPIILRQRGP [SRB4]
[out] 2.32

[in] I'd like to know its protein stability index. The sequence in question is MAGVKAYELRTKSKEQL [RPL35A]
[out] 2.94

[in] I'd like to know its protein stability index. The sequence in question is NNNSSNEKEQLSFINPK [SEC65]
[out] 2.8

[in] I'd like to know its protein stability index. The sequence in question is KNLKDTASVEKAEFSKE [YIL149C/MLP2]
[out] 3.09

[in] I'd like to know its protein stability index. The sequence in question is NVTFGSKKDPRILKNVS [YMR153W/NUP53]
[out] 2.81

[in] I'd like to know its protein stability index. The sequence in question is PSRIFYKALRGMVSHKT [RPL16A]
[out] 2.44

[in] I'd like to know its protein stability index. The sequence in question is KVVKAIRIYFTEKDDNK [NUT1]
[out] 2.55

[in] I'd like to know its protein stability index. The sequence in question is GRLLRAMFEICLKRGWG [BRR2]
[out] 1.76

[in] I'd like to know its protein stability index. The sequence in question is LNKFKKAIFQFVCRGMA [ECM29]
[out] 2.6
